methodNotes: qHTS assay to identify small molecule agonists of the endoplasmic reticulum stress response signaling pathway (AID 1159516); also: % is scaled to controls: 0 for no effect and ±100 for the full control effect
recordedConditions: ESRE-bla HeLa, ER stress beta-lactamase reporter, 5 h; series mostly up to 61 µM
Results filed as inconclusive are left out. Active and inactive are the calls of the source. Calls follow the shape of the dose curve; as a rule, active = well fitted activation curve with a large enough effect in the signal ratio in the repeat runs (not every such curve was filed as active); inconclusive = weak or mixed curves, or effect the other way; inactive = flat fitted curve, though single readings scatter; the % refers to the signal ratio.
readoutKind: activation

1. COc1ccc2cc1Oc1cc3c(cc1OC)CC[N+](C)(C)[C@H]3Cc1ccc(cc1)Oc1c(OC)c(OC)cc3c1[C@@H](C2)[N+](C)(C)CC3    inactive
2. CCCCCCCCCCCCSC    inactive
3. CC(C)(C#N)Nc1nc(Cl)nc(NC2CC2)n1    inactive
4. C=CC(=O)OCCCl    inactive
5. CCCc1nn(C)c2c(=O)[nH]c(-c3cc(S(=O)(=O)N4CCN(C)CC4)ccc3OCC)nc12    inactive
6. CCCCc1ccc2c(n1)[C@@H](c1ccc(OC)cc1C[C@H](C)C(=O)O)[C@H](C(=O)O)[C@H]2c1ccc2c(c1)OCO2    inactive

Next, consider the following compound.
Inquiry: Supply measured activation of C=CN1CCCCCC1=O in your reply.
Reply text: inactive

====

methodNotes: qHTS RealTime-Glo MT Cell Viability Assay in HEK293 cells - 32 hour (AID 1224868); also: potency is read from the fitted curve at half-maximal effect; nearly all actives have a fitted effect of over 50% in size
recordedConditions: RealTime-Glo luminescence; series mostly up to 76.8 µM
Records with an inconclusive call do not appear. Active and inactive are the calls of the source. Calls come from the whole dose curve; as a rule, active = well fitted cell-killing curve with a large enough effect in the repeat runs; inconclusive = weak or mixed curves, or effect the other way; inactive = flat fitted curve, though single readings scatter.
Kindly supply the reported Potency values for the records listed here.

Inquiry: Consider the molecule COc1cc2c(cc1OC)-c1cc3ccc(OC)c(OC)c3c[n+]1CC2 . State its measured Potency.
Reply text: 49.4 µM (active)

Inquiry: Specify Potency for Nc1ccn([C@@H]2O[C@H](CO)[C@@H](O)C2(F)F)c(=O)n1 and stop.
Reply text: 1.07 µM (active)

Inquiry: Give a short answer stating reported Potency for CC(=O)O[C@@]12CO[C@@H]1C[C@H](O)[C@@]1(C)C(=O)[C@H](O)C3=C(C)[C@@H](OC(=O)[C@H](O)[C@@H](NC(=O)OC(C)(C)C)c4ccccc4)C[C@@](O)([C@@H](OC(=O)c4ccccc4)[C@H]21)C3(C)C .
Reply text: 0.0477 µM (active)

Inquiry: In one line, give reported Potency of the entry CCN(Cc1ccccc1)c1ccccc1 .
Reply text: 19.3 µM (active)

Inquiry: Note Potency for the molecule shown: COC(=O)C1=C(C)NC(C)=C(C(=O)OC(C)C)C1c1cccc2nonc12 (stereo not given)
Reply text: 19 µM (active)

====

experimentalSystem: Luciferin 4-monooxygenase (Photinus pyralis) (UniProt P08659)
Sequence (P08659 whole entry, looked up): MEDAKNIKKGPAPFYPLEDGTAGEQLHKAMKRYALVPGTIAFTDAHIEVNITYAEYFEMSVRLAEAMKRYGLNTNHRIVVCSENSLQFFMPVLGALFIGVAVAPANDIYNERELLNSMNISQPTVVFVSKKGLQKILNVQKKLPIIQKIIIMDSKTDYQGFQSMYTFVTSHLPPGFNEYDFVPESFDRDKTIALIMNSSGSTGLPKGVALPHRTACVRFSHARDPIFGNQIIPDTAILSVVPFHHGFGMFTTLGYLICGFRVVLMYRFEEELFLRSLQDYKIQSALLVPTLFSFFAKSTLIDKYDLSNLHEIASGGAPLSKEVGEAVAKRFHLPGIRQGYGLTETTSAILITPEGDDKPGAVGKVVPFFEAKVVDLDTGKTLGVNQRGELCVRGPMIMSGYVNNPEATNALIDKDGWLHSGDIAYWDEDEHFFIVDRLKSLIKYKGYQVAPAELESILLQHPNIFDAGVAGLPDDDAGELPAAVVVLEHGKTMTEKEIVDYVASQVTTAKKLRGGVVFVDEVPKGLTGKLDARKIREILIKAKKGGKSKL
methodNotes: qHTS assay to identify small molecule inhibitors of firefly luciferase (AID 1224835); also: potency is read from the fitted curve at half-maximal effect; nearly all actives have a fitted effect of over 25% in size
recordedConditions: purified P. pyralis luciferase, luminescence inhibition; series mostly up to 115 µM
Records with an inconclusive call do not appear. Activity calls are given as the source filed them. Calls follow the shape of the dose curve; as a rule, active = well fitted inhibition curve with a large enough effect in the repeat runs; inconclusive = weak or mixed curves; inactive = flat fitted curve, though single readings scatter.
readoutKind: Potency

Inquiry: Tell me Potency reported for Cc1ccc(C(=O)c2ccc(CC(=O)O)n2C)cc1
Reply text: 15.5 µM (active)

Inquiry: Note Potency for the compound shown: CCOC(=O)C1=NOC(c2ccccc2)(c2ccccc2)C1
Reply text: 71 µM (active)

Inquiry: Respond only with Potency recorded for CNC(=O)Nc1ccc(Cl)c(Cl)c1
Reply text: 56.4 µM (active)

Inquiry: Please give measured Potency of the following entry: CC(C)(C)OC(=O)c1cccc(N)c1
Reply text: 57.9 µM (active)

====

experimentalSystem: Cytochrome P450 2D6 (Homo sapiens) (UniProt P10635)
Sequence (P10635 whole entry, looked up): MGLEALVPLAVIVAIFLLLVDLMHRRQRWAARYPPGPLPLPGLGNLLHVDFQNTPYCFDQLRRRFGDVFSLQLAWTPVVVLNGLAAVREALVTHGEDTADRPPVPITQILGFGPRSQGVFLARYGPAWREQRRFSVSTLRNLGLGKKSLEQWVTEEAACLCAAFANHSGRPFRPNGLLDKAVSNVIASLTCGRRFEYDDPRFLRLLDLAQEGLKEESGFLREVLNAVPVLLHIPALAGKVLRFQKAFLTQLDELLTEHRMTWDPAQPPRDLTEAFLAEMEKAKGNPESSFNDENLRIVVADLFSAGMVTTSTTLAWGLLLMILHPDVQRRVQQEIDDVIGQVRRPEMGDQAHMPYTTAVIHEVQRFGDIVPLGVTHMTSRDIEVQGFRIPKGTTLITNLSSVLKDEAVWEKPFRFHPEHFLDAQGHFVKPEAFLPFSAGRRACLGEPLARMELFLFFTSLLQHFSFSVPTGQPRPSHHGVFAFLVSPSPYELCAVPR
methodNotes: Cytochrome P450 Family 2 Subfamily D Member 6 (CYP2D6) small molecule antagonists: luciferase reporter qHTS assay (AID 1671196); also: nearly all actives have a fitted effect of over 50% in size
recordedConditions: P450-Glo CYP2D6 enzyme assay, luciferin luminescence, 1 h; series mostly up to 115 µM
Records with an inconclusive call do not appear. The source made the active and inactive calls. Calls come from the whole dose curve; as a rule, active = well fitted inhibition curve with a large enough effect in the repeat runs; inconclusive = weak or mixed curves; inactive = no such curve, though single readings can be large or run the other way. Where a SMILES comes first, the peptide text is derived from it. [ ]: non-standard residue; d: D form. pGlu = O=C1CC[C@@H](C(=O)O)N1
Pick from active, inactive when you respond.

Inquiry: Please let me know the test result on file for Nc1ccn([C@@H]2O[C@H](CO)[C@@H](O)C2(F)F)c(=O)n1 .
Reply text: inactive

Inquiry: Dear all, I need the recorded test outcome for CCCCOC(=O)CCC(C)=O , thank you.
Reply text: inactive

Inquiry: Please share the test call associated with NC(=O)N[C@@H](CCC(=O)O)C(=O)O .
Reply text: inactive

Inquiry: Please let me know the test result on file for CNC(=O)Nc1ccc(Cl)c(Cl)c1 .
Reply text: inactive

Inquiry: Called result for [K+]
Reply text: inactive

Inquiry: For CN(C)C(=O)Oc1ccc[n+](C)c1 , what call appears in the results of this test?
Reply text: inactive

Inquiry: Status in this test for CCCCCC(C)N (centres undefined) ?
Reply text: inactive

Inquiry: Lab log entry: O=S(=O)(O)c1cccc2c(S(=O)(=O)O)cccc12 — outcome as called in the assay?
Reply text: inactive

Inquiry: Identify the outcome logged in this assay for the compound shown: CC/C=C\CCOC(C)OCC (centres undefined)
Reply text: inactive

Inquiry: Any idea what this test logged for C=CN1CCCCCC1=O ?
Reply text: inactive

Inquiry: Please let me know the test result on file for Cc1onc(-c2c(Cl)cccc2Cl)c1C(=O)Cl .
Reply text: inactive

Inquiry: Could you please tell me the result logged for CC1OC1C1CCC2(C)OC2C1 (centres undefined) in this assay?
Reply text: inactive

Inquiry: // param item: C1CCC2(CCCCO2)OC1 ; yields the recorded call
Reply text: inactive

Inquiry: Hello, I am checking results. What call was entered for C=COCC1CCC(COC=C)CC1 (centres undefined) ?
Reply text: inactive

Inquiry: For this compound, state the assay outcome: O=C(c1ccccc1)C1(O)CCCCC1
Reply text: inactive

Inquiry: Any idea what this test logged for CN1C(C)(C)CC(O)CC1(C)C ?
Reply text: inactive

Inquiry: Short answer needed: outcome of this test for Cc1ncc(COP(=O)(O)O)c(C=O)c1O ?
Reply text: inactive

Inquiry: Assay result, entry CC(C)[C@H]1CC[C@@H](C)CC1=O — outcome?
Reply text: inactive

Inquiry: What is the recorded call for this compound in the test? CCCC[N+](C)(CCCC)CCCC
Reply text: active

Inquiry: Could you please tell me the result logged for O=C(O)CCSCCC(=O)O in this assay?
Reply text: inactive

Inquiry: Recorded test call requested for CCCCCCCCCCCCCCCCCCO
Reply text: inactive

Inquiry: What is the recorded call for this compound in the test? O=C(CO)[C@@H](O)[C@H](O)[C@H](O)CO
Reply text: inactive

Inquiry: Name the outcome recorded for CCCCc1ccc2c(n1)[C@@H](c1ccc(OC)cc1C[C@H](C)C(=O)O)[C@H](C(=O)O)[C@H]2c1ccc2c(c1)OCO2 in the assay.
Reply text: active

Inquiry: Outcome? COc1c(N2CCNC(C)C2)c(F)cc2c(=O)c(C(=O)O)cn(C3CC3)c12 (centres undefined)
Reply text: inactive

Inquiry: # outcome recorded in this test, key = CCCCCCC1CCC(=O)O1 (centres undefined)
Reply text: inactive

Inquiry: What did this assay record as the result for Nc1ccncc1N ?
Reply text: inactive

Inquiry: # outcome recorded in this test, key = CCOC(=O)OC(C)OC1=C(C(=O)Nc2ccccn2)N(C)S(=O)(=O)c2ccccc21 (centres undefined)
Reply text: inactive

Inquiry: Record request — test call for C=C(C)C(=O)OCC(O)CO (centres undefined)
Reply text: inactive

Inquiry: Just curious, what result did O=CN(CCO)CCO get here?
Reply text: inactive

Inquiry: Record lookup: outcome of this test for CC(=O)NC(=O)c1ccccc1O ?
Reply text: inactive

Inquiry: For C=C(C)C(=O)OCCOCCOCCOCCOC(=O)C(=C)C , which call appears in the assay record?
Reply text: inactive

Inquiry: # fetch the recorded call for O=[N+]([O-])c1cncn1CCN1CCOCC1 here
Reply text: inactive

Inquiry: Test call, this compound: O=S(=O)(O)c1cccc2ccccc12
Reply text: inactive

Inquiry: I'd appreciate the recorded outcome for CCNC(=O)[C@@H]1CCCN1C(=O)[C@H](CCCN=C(N)N)NC(=O)[C@H](CC(C)C)NC(=O)CNC(=O)[C@H](Cc1ccc(O)cc1)NC(=O)[C@H](CO)NC(=O)[C@H](Cc1c[nH]c2ccccc12)NC(=O)[C@H](Cc1cnc[nH]1)NC(=O)[C@@H]1CCC(=O)N1 ([pGlu]HWSYGLRP-NHEt) from this test.
Reply text: inactive

====

methodNotes: qHTS assay to identify small molecule antagonists of the estrogen receptor alpha (ER-alpha) signaling pathway using the BG1 cell line in the presence of 0.1 nM 17-beta-estradiol - cell viability counter screen (AID 1259241); also: % is scaled to controls: 0 for no effect and ±100 for the full control effect; nearly all actives have a fitted effect of over 40% in size
recordedConditions: VM7Luc4E2 (BG1) viability, CellTiter-Fluor protease, 22 h, 0.1 nM estradiol agonist added; series mostly up to 92.4 µM
Inconclusive results are not listed. Activity calls are given as the source filed them. The call rests on the fitted dose curve; in most records, active means well fitted cell-killing curve with a large enough effect in the repeat runs; inconclusive means weak or mixed curves, or effect the other way; inactive means flat fitted curve, though single readings scatter.
readoutKind: activity change, negative = cytotoxicity

Sample answers from the record:
1. O=CN(CCO)CCO    inactive
2. O=C(O)CNC(=O)c1ccc(CO)o1    inactive
3. CCOC(=O)OC(C)OC1=C(C(=O)Nc2ccccn2)N(C)S(=O)(=O)c2ccccc21 (centres undefined)    inactive
4. CC1=NS(=O)(=O)c2cc(Cl)ccc2N1    inactive

Inquiry: Return the recorded activity change, negative = cytotoxicity value; entry: NO
Reply text: inactive

Inquiry: Query activity change, negative = cytotoxicity for CCN1CCOCC1
Reply text: inactive

Inquiry: Fill in activity change, negative = cytotoxicity for record CC(C)(CCC(=O)O)C(=O)O
Reply text: inactive

Inquiry: Give reported activity change, negative = cytotoxicity value for C=C(C)C(=O)OCC1CCCO1 (centres undefined)
Reply text: inactive

Inquiry: For O=C(O)CCSCCC(=O)O , write its activity change, negative = cytotoxicity.
Reply text: inactive

Inquiry: Item NC(=O)Cc1cccc2ccccc12 : provide activity change, negative = cytotoxicity
Reply text: inactive

Inquiry: Return the recorded activity change, negative = cytotoxicity value; entry: COc1ccccc1OCC1CNC(=O)O1 (centres undefined)
Reply text: inactive

Inquiry: Give activity change, negative = cytotoxicity for CCN[C@@H]1C[C@H](N)[C@@H](OC2OC(CN)=CCC2N)[C@H](O)[C@H]1O[C@H]1OC[C@](C)(O)[C@H](NC)[C@H]1O (some centres undefined)
Reply text: 0.862% [at 0.349 µM] (inactive)

Inquiry: Provide activity change, negative = cytotoxicity value for the following molecule: CC1(C)OC[C@@H](COC(=O)CCc2ccc(OC[C@@H](O)CNCCNC(=O)N3CCOCC3)cc2)O1
Reply text: inactive

Inquiry: Please give the documented activity change, negative = cytotoxicity of CC(=O)NC(=O)c1ccccc1O
Reply text: inactive
